FYI, the data here is from patent US12673953B2.

- PROCEDURE SUMMARY: Mean bulk density, mean tapped density and Hausner ratio (modified USP <616>)
- Type: physicochemical
- STUDY CONDITIONS: ratio of initial volume to constant volume (Vo/Vf)
READOUT NAME: Hausner ratio
Answers are plain numbers.

- CC(C)(C=C(C#N)C(=O)N1CCCC(n2nc(-c3ccc(Oc4ccccc4)cc3F)c3c(N)ncnc32)C1)N1CCN(C2COC2)CC1 (stereo not shown) [Comparator 2]: 1.4
- CC(C)(C=C(C#N)C(=O)N1CCCC(n2nc(-c3ccc(Oc4ccccc4)cc3F)c3c(N)ncnc32)C1)N1CCN(C2COC2)CC1 (stereo not shown) [Compound (I) prepared by a precipitation process described h]: 1.2
- CC(C)(C=C(C#N)C(=O)N1CCCC(n2nc(-c3ccc(Oc4ccccc4)cc3F)c3c(N)ncnc32)C1)N1CCN(C2COC2)CC1 (stereo not shown) [Compound (I) prepared by a spray drying process described he]: 1.4

Next:
Query string: Which Hausner ratio is reported for this molecule? CC(C)(C=C(C#N)C(=O)N1CCCC(n2nc(-c3ccc(Oc4ccccc4)cc3F)c3c(N)ncnc32)C1)N1CCN(C2COC2)CC1 (stereo not shown) [Comparator 1]
Result string: 1.4

---

Can you tell me Wet particle size distribution D10 for the items I'm about to list?
- PROCEDURE SUMMARY: Wet particle size distribution by laser diffraction (Malvern Mastersizer 3000)
- Type: physicochemical
- STUDY CONDITIONS: dispersant heptane with 0.2% Span 80
Give bare numbers, in μm.

Recorded Wet particle size distribution D10, per entry:
- CC(C)(C=C(C#N)C(=O)N1CCCC(n2nc(-c3ccc(Oc4ccccc4)cc3F)c3c(N)ncnc32)C1)N1CCN(C2COC2)CC1 (stereo not shown) [Compound (I) prepared by a precipitation process described h]: 1.9
- CC(C)(C=C(C#N)C(=O)N1CCCC(n2nc(-c3ccc(Oc4ccccc4)cc3F)c3c(N)ncnc32)C1)N1CCN(C2COC2)CC1 (stereo not shown) [Comparator 1]: 18.3
- CC(C)(C=C(C#N)C(=O)N1CCCC(n2nc(-c3ccc(Oc4ccccc4)cc3F)c3c(N)ncnc32)C1)N1CCN(C2COC2)CC1 (stereo not shown) [Compound (I) prepared by a spray drying process described he]: 5.24

Query string: Which Wet particle size distribution D10 is reported for this compound? CC(C)(C=C(C#N)C(=O)N1CCCC(n2nc(-c3ccc(Oc4ccccc4)cc3F)c3c(N)ncnc32)C1)N1CCN(C2COC2)CC1 (stereo not shown) [Comparator 2]
Result string: 56.9
